# Target or system: Vascular endothelial growth factor receptor 1 (Homo sapiens, UniProt P17948); also: in other assays of this panel Not Active means under 50% inhibition at 10 µM
# Sequence (P17948 whole entry): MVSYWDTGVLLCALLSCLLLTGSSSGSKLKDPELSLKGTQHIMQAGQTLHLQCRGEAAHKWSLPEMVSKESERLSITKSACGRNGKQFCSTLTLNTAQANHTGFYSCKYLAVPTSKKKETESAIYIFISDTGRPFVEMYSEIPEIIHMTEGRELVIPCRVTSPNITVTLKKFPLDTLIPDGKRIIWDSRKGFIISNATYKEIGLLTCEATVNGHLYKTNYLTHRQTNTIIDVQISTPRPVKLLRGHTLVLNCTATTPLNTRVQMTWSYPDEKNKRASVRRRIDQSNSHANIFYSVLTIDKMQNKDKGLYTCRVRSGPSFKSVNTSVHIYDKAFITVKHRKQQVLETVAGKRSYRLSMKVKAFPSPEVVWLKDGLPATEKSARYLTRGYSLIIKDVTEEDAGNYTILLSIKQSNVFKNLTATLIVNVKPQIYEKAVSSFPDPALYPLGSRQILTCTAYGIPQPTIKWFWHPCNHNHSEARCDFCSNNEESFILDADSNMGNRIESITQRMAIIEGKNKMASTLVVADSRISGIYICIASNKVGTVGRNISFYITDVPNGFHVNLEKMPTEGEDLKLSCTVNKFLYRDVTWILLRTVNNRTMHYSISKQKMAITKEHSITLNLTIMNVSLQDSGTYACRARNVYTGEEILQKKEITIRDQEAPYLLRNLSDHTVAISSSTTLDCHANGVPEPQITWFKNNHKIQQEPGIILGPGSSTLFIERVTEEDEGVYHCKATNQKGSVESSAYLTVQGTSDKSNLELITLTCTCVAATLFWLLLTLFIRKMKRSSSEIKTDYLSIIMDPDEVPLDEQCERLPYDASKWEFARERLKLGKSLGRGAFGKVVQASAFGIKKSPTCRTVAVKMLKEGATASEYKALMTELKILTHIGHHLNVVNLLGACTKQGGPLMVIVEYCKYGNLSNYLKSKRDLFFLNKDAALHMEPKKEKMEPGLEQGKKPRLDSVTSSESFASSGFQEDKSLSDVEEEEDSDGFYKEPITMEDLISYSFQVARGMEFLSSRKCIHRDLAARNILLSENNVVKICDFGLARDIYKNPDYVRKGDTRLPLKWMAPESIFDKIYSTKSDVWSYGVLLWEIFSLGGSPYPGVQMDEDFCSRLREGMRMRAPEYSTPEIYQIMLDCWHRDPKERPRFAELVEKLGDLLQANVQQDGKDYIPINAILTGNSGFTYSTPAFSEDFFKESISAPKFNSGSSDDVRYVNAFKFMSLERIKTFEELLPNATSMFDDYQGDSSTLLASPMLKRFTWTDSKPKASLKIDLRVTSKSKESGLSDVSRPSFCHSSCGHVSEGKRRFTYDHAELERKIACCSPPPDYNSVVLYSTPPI
# Test protocol: biochemical
# Assay type: cell-based, HUVEC
# Protocol conditions: huvec
Measured parameter: Ki

Would you please look over these solved cases?
INSERT INTO assay_data (substance, value_measured) VALUES
  ('STANNOUS FLUORIDE', 'Not Active'),
  ('COBALT(II) ACETYLACETONATE', 'Not Active'),
  ('POLYVINYL ALCOHOL', 'Not Active'),
  ('THIMEROSAL', 'Not Active');

Exam item: Report value only: Ki, Vascular endothelial growth factor receptor 1 (Homo sapiens, UniProt P17948), INSULIN HUMAN
Marked response: Not Active
